Where do the numbers come from? From paper PMC10955571.

Please consider the recorded IC50 for BACE-1 (Homo sapiens, UniProt P56817) in what follows.
Where a SMILES comes first, the peptide text is derived from it. The star is where a group is joined. Isobutyryl = CC(C)C(=O)*

get_value(item= CC(C)C(=O)NCC(=O)N1CCC[C@H]1C(=O)N[C@@H](C)C(=O)O [Compound 14, Isobut-Gly-Pro-Ala-OH] (Isobutyryl-Gly-Pro-Ala-OH) , readout=IC50) returns 0.6 µM

get_value(item= C(=C\n1nncc1COc1ccc2ccccc2c1-c1c(OCc2cnnn2/C=C/Cc2ccccc2)ccc2ccccc12)/Cc1ccccc1 , readout=IC50) returns 1 µM

get_value(item= CC(C)=CCOC(=O)[C@H](C)NC(=O)[C@@H]1CCCN1C(=O)CNC(=O)OCc1ccccc1 , readout=IC50) returns 20 µM
